// provenance: ChEMBL document CHEMBL5143600

# Target Or System: 5'-nucleotidase (Homo sapiens)
# Sequence (P21589 whole entry): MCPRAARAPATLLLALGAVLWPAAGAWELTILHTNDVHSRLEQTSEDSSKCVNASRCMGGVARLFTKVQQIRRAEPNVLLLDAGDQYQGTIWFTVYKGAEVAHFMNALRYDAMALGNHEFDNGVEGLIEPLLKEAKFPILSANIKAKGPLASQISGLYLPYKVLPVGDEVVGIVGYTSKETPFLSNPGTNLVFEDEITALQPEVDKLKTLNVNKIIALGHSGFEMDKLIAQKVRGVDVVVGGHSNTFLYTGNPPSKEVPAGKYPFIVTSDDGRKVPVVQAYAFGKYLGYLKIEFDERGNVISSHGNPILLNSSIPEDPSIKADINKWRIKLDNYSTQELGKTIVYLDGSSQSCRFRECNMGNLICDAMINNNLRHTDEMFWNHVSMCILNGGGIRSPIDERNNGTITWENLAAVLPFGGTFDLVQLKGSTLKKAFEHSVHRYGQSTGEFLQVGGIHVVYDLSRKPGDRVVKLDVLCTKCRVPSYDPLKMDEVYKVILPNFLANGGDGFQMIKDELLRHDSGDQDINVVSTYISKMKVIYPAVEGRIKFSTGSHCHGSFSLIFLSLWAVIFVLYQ
In this section, each of the compounds is paired with its reported IC50.

Compound | IC50
C=C(C)[C@@H]1CC[C@]2(C=O)CC[C@]3(C)[C@H](CC[C@@H]4[C@@]5(C)CC[C@H](O)C(C)(C)[C@@H]5CC[C@]43C)[C@@H]12 [BETULINALDEHYDE] | > 100 µM
C=C(C)[C@@H]1CC[C@]2(C(=O)O)CC[C@]3(C)[C@H](CC[C@@H]4[C@@]5(C)CC[C@H](O)[C@@](C)(CO)[C@@H]5CC[C@]43C)[C@@H]12 | > 100 µM
C=C(C)[C@@H]1CC[C@]2(C(=O)O)CC[C@]3(C)[C@H](CC[C@@H]4[C@@]5(C)CC[C@H](OC(=O)N6CCN(C)CC6)C(C)(C)[C@@H]5CC[C@]43C)[C@@H]12 | > 100 µM

###

In this section, each of the compounds is paired with its reported pIC50.
# Target Or System: 5'-nucleotidase (Mus musculus, UniProt Q61503)
# Sequence (Q61503 whole entry): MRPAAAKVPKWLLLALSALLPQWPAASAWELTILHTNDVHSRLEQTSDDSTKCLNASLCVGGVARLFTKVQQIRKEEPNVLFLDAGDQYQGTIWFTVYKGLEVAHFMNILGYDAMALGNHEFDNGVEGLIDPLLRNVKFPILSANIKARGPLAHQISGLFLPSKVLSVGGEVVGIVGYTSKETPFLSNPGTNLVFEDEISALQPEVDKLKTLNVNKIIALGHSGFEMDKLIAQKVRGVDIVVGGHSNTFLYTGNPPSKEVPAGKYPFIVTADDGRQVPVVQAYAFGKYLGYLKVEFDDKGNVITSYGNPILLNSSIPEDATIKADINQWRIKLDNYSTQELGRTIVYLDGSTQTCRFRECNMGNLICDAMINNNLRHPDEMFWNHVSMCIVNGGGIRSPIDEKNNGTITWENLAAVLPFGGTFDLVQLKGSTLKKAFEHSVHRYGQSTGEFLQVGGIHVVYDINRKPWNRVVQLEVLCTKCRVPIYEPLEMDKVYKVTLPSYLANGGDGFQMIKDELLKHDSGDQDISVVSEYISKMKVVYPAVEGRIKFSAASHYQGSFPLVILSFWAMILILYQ
pIC50: −log10 of the molar value.

Smiles Repr | pIC50
C=C(C)[C@@H]1CC[C@]2(C(=O)O)CC[C@]3(C)[C@H](CC[C@@H]4[C@@]5(C)CC[C@H](OC(=O)NCCN6CCOCC6)C(C)(C)[C@@H]5CC[C@]43C)[C@@H]12 | < 4.00
C=C(C)[C@@H]1CC[C@]2(C(=O)O)CC[C@]3(C)[C@H](CC[C@@H]4[C@@]5(C)CC[C@H](OC(=O)NCCO)C(C)(C)[C@@H]5CC[C@]43C)[C@@H]12 | < 4.00
C=C(C)[C@@H]1CC[C@]2(C(=O)O)CC[C@]3(C)[C@H](CC[C@@H]4[C@@]5(C)CC[C@H](OC(=O)NC6CC6)C(C)(C)[C@@H]5CC[C@]43C)[C@@H]12 | < 4.00
